# Experimental Details: melting temperature; fluorescence melt of hairpins on a sequencing array, two-state fit, raised by 9.35 °C to match UV melts
# Measurement Conditions: sodium 0.088 M
Measured Metric: Tm (°C)

Biosequence | Measured Metric | Meas Value
GATCAAACGTTGATC ((((((...)))))) | Tm | 39.5
GATCTCACTGAGATC ((((((...)))))) | Tm | 52.1
GTCTGCGAAAGCAGCGAC ((((((....)))..))) | Tm | 60.6
GCCGGTTCGAAAGAAGGC (((..(((....)))))) | Tm | 38.8
GGGCACGAAAGTGAACCC ((((((....)))..))) | Tm | 51.7
GATCCGCGCCCGGATC ((((((....)))))) | Tm | 56.5
GATCCCAAAAGGGATC ((((((....)))))) | Tm | 59.3
GTATTGGGAAACTAATAC (((((.(....).))))) | Tm | 34.8
GCGTTGGGAAACCAACAC (.(((((....))))).) | Tm | 42.5
GGGGTACGAAAGTAGCCC (((.(((....))).))) | Tm | 67.7
GCGAAGCCGAAAGGCCGC (((..(((....)))))) | Tm | 58.8
GTTGGCGGAAACGTCAGC (.((.((....)).)).) | Tm | 42.3
GGCATGAAAATGCC (((((....))))) | Tm | 62.8
GATCCTGTCCAGGATC ((((((....)))))) | Tm | 58.1
GATCCCCGAAAGGGTATC (((.(((....))).))) | Tm | 42.2
GATCGACGGGTCGATC ((((((....)))))) | Tm | 63.3
GACATGGGAAACCATGCC (.(((((....))))).) | Tm | 42.8
GATCAAGTCTTGATC ((((((...)))))) | Tm | 46.2
GGCTTAGGAAACTAAGTC (.(((((....))))).) | Tm | 44.4
GCTTCAGGAAACTGGAGC (((.(((....))).))) | Tm | 49.9
GTCACCGAAAGGTCGAC ((((((....))).))) | Tm | 48.1
GGCTACGAAAGTAAAGCC ((((((....)))..))) | Tm | 50.5
GGCAGCGGAAACGTTGCC ((((.((....)).)))) | Tm | 61.2
GGGGCCGAAAGGCGGCCC ((((((....)))..))) | Tm | 68.2
GATCTCACCGGAGATC ((((((....)))))) | Tm | 52.2

###

Listed here: items and their measured Tm.
# Experimental Details: melting temperature; fluorescence melt of hairpins on a sequencing array, two-state fit, raised by 9.35 °C to match UV melts
# Measurement Conditions: sodium 0.088 M
Measured Metric: Tm

Biosequence | Measured Metric | Meas Value
GCGGAGTCCCGC ((((....)))) | Tm | 55.7 °C
GGCGAGGGAAACCTTGCC (((.(((....))).))) | Tm | 58 °C
GAGTACGAAAGTAGCTC ((((((....))).))) | Tm | 37.5 °C
GGGTCCGAAAGGAATCCC ((((((....)))..))) | Tm | 46.7 °C
GCCGAGCGAAAGCTGTGC ((..(((....)))..)) | Tm | 41.2 °C
GTGAGACGAAAGTCCAC (((.(((....)))))) | Tm | 53.8 °C
GCCAGGCGAAAGCCATGC ((..(((....)))..)) | Tm | 42.3 °C
GCAAAACGAAAGTTTGC (((.(((....)))))) | Tm | 50.8 °C
GCTTTGACGAAAGTCAGC (((..(((....)))))) | Tm | 33.2 °C
GGCCTATCGAAAGATGCC (((..(((....)))))) | Tm | 36.1 °C
CGTCTGAAAAGACG (((((....))))) | Tm | 55.2 °C
GACACAGGAAACTGTGTC (((((((....))))))) | Tm | 62.5 °C
